- protocol.details: Apparent permeability in human Caco2 cells
- Assay type: ADME, cell-based
- test.context: Caco-2
measured.property: Papp (×10⁻⁶ cm/s)

Cc1[nH]nc2[nH]c(=O)cc([C@H]3C[C@H]4C[C@@H]3C[C@@H]4CC#N)c12 = 0.7

----------
Heads up, these compounds all have IC50 values measured for Tyrosine-protein kinase JAK2 (Homo sapiens).
measured.property: IC50

Cc1[nH]nc2[nH]c(=O)cc([C@@H]3C[C@@H]4C[C@H]3C[C@@H]4CC#N)c12 = 150 nM
Cc1[nH]nc2[nH]c(=O)cc(C3CC4CCC3CC4)c12 (racemic) = 330 nM
Cc1[nH]nc2[nH]c(=O)cc([C@H]3CC[C@H](NC(=O)C4CC4)CC3)c12 = 2100 nM
